Target: RORc ligand binding domain (Homo sapiens, UniProt P51449)
Sequence (P51449 269-508 limits assumed): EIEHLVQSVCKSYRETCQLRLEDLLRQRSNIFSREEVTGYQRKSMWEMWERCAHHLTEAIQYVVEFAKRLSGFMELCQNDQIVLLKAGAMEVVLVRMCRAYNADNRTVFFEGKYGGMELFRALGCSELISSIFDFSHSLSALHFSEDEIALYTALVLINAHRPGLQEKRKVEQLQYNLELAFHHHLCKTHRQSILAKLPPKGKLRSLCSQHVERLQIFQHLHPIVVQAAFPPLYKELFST
pIC50: −log10 of the molar value.
// pIC50 lookup, one value per entry

# MOLECULE, pIC50
data = [
    ("CC(C)CN([C@@H](C)c1ccc(-c2cccc(S(C)(=O)=O)c2)cc1)S(=O)(=O)Cc1ccccc1 [Compound 19]", 6.16),
    ("CCn1cc(-c2ccc(CN(CC(C)C)S(=O)(=O)Cc3ccccc3)s2)cn1 [Compound 36]", 6.22),
    ("CC(C)CN([C@@H](C)c1ccc(-c2ccc(S(C)(=O)=O)cc2)cc1)S(=O)(=O)Cc1ccccc1 [Compound 18]", 6.77),
    ("CC(C)CN(Cc1ccc(-c2ccc(S(C)(=O)=O)cc2)c(C#N)c1)S(=O)(=O)Cc1ccccc1 [Compound 69]", 7.13),
    ("CC(C)CN(Cc1ccc(-c2cncc(S(C)(=O)=O)c2)s1)S(=O)(=O)Cc1ccccc1 [Compound 44]", 5.60),
    ("Cc1cc(CN(CC(C)C)S(=O)(=O)Cc2ccccc2)ccc1-c1ccc(S(C)(=O)=O)cc1 [Compound 24]", 7.96),
    ("CC(=O)Nc1ccc(-c2ccc(CN(CC(C)C)S(=O)(=O)Cc3ccccc3)s2)cn1 [Compound 52]", 5.52),
    ("CS(=O)(=O)c1cccc(-c2ccc(CN(Cc3ccc(F)cc3Cl)S(=O)(=O)Cc3ccccc3)cc2)c1 [Compound 2]", 5.55),
]
